Entry source: paper PMC5959751

# system.tested: UniProtKB P0DMS8
# Sequence (P0DMS8 1-318): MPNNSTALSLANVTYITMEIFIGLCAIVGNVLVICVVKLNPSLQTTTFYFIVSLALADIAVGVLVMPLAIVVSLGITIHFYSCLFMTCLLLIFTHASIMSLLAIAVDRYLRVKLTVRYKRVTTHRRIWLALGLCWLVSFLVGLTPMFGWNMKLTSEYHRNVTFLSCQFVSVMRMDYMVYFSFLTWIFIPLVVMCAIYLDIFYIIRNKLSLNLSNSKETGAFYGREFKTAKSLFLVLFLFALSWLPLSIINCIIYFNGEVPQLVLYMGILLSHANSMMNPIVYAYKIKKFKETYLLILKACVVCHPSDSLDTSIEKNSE
# assay.remarks: Competition association assay with [3H]PSB-11
# Type: binding
# experimental.parameters: no GTP; RT = 1/(60*koff)

{"compound": "OC[C@H]1O[C@@H](n2cnc3c(Nc4cccc(Cl)c4)ncnc32)[C@H](O)[C@@H]1O", "RT (residence time)": "10 ± 1.3 min"}
{"compound": "CNC(=O)C12CC1C(n1cnc3c(NCc4cccc(Cl)c4)nc(C#Cc4ccccc4)nc31)C(O)C2O (centres unmarked)", "RT (residence time)": "909 ± 165 min"}
{"compound": "CNC(=O)[C@@]12C[C@@H]1[C@@H](n1cnc3c(NC)cc(C#Cc4ccc(Cl)s4)nc31)[C@H](O)[C@@H]2O", "RT (residence time)": "196 ± 8 min"}
{"compound": "CNC(=O)C12CC1C(n1cnc3c(NC)nc(C#Cc4ccc(-c5ccccc5)cc4)nc31)C(O)C2O (centres unmarked)", "RT (residence time)": "1563 ± 464 min"}
{"compound": "CCCNc1nc(C#Cc2ccc(Cl)s2)nc2c1ncn2[C@H]1[C@H](O)[C@H](O)[C@]2(C(=O)NC)C[C@H]12", "RT (residence time)": "270 ± 51 min"}

* * *

# system.tested: hA3 receptor (Homo sapiens, UniProt P0DMS8)
# assay.remarks: Radioligand equilibrium displacement assay with [3H]PSB-11 on CHOhA3 membranes
# Assay type: binding
# experimental.parameters: read-out: mean Ki; no GTP; 10 °C, 240 min; [3H]PSB-11; CHO cell membranes
Define the label as y when Ki is strictly less than 40 nM and as n in all remaining cases.

{"compound": "CNC(=O)C12CC1C(n1cnc3c(NC)nc(C#Cc4ccc(-c5ccccc5)cc4)nc31)C(O)C2O (stereo not drawn) [MRS5667]", "assigned.class": "y"}
{"compound": "OC[C@H]1O[C@@H](n2cnc3c(Nc4ccc(Cl)cc4)ncnc32)[C@H](O)[C@@H]1O [LUF5500]", "assigned.class": "n"}
{"compound": "OC[C@H]1O[C@@H](n2cnc3c(Nc4ccc(I)cc4)ncnc32)[C@H](O)[C@@H]1O [LUF5506]", "assigned.class": "y"}
{"compound": "CCCNc1nc(C#Cc2ccc(Cl)s2)nc2c1ncn2[C@H]1[C@H](O)[C@H](O)[C@]2(C(=O)NC)C[C@H]12 [MRS7154]", "assigned.class": "y"}
{"compound": "CNC(=O)C12CC1C(n1cnc3c(N(C)C)nc(C#Cc4ccc(Cl)s4)nc31)C(O)C2O (stereo not drawn) [MRS7158]", "assigned.class": "n"}
{"compound": "OC[C@H]1O[C@@H](n2cnc3c(Nc4cccc(Cl)c4)ncnc32)[C@H](O)[C@@H]1O [LUF5501]", "assigned.class": "y"}
{"compound": "CNC(=O)C12CC1C(n1cnc3c(NCc4cccc(Cl)c4)nc(C#Cc4ccccc4)nc31)C(O)C2O (stereo not drawn) [MRS5655]", "assigned.class": "y"}
{"compound": "CNC(=O)[C@H]1O[C@@H](n2cnc3c(N)ncnc32)[C@H](O)[C@@H]1O [MECA, 5′-N-methylcarboxamidoadenosine, reference compound]", "assigned.class": "n"}
{"compound": "CNC(=O)[C@@]12C[C@@H]1[C@@H](n1cnc3c(NC)cc(C#Cc4ccc(Cl)s4)nc31)[C@H](O)[C@@H]2O [MRS7140]", "assigned.class": "y"}

* * *

# system.tested: UniProtKB P0DMS8
# assay.remarks: Radioligand equilibrium displacement assay with [3H]PSB-11 on CHOhA3 membranes
# Type: binding
# experimental.parameters: mean Ki, no GTP; 10 °C, 240 min; [3H]PSB-11; CHO cell membranes

{"compound": "CNC(=O)[C@@]12C[C@@H]1[C@@H](n1cnc3c(NCc4cccc(Cl)c4)nc(C#Cc4ccc(-c5ccccc5)cc4)nc31)[C@H](O)[C@@H]2O [MRS5679]", "Ki (nM)": 82}

* * *

# system.tested: hA3 receptor (Homo sapiens, UniProt P0DMS8)
# Sequence (P0DMS8 1-318): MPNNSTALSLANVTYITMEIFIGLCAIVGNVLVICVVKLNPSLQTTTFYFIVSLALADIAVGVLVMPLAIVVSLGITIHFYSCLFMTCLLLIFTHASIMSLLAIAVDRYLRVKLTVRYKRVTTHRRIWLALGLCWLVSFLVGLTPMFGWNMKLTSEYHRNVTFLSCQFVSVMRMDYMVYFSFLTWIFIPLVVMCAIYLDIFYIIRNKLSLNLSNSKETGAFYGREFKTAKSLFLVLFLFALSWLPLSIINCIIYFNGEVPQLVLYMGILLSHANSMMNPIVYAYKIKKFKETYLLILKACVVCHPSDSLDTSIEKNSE
# assay.remarks: Competition association assay with [3H]PSB-11
# Type: binding
# experimental.parameters: no GTP; from KD = koff/kon
Measured mean pKD (kinetic) by item
reported.property: mean pKD (kinetic)

{"compound": "CNC(=O)[C@@]12C[C@@H]1[C@@H](n1cnc3c(NC)cc(C#Cc4ccc(Cl)s4)nc31)[C@H](O)[C@@H]2O", "system.tested": "hA3 receptor (Homo sapiens, UniProt P0DMS8)", "reported.property": "mean pKD (kinetic)", "result": 9.6}
{"compound": "CCCNc1nc(C#Cc2ccc(Cl)s2)nc2c1ncn2[C@H]1[C@H](O)[C@H](O)[C@]2(C(=O)NC)C[C@H]12", "system.tested": "hA3 receptor (Homo sapiens, UniProt P0DMS8)", "reported.property": "mean pKD (kinetic)", "result": 9.8}
{"compound": "CNC(=O)C12CC1C(n1cnc3c(NC)nc(C#Cc4ccc(-c5ccccc5)cc4)nc31)C(O)C2O (centres unmarked)", "system.tested": "hA3 receptor (Homo sapiens, UniProt P0DMS8)", "reported.property": "mean pKD (kinetic)", "result": 10.2}
{"compound": "CNC(=O)C12CC1C(n1cnc3c(NCc4cccc(Cl)c4)nc(C#Cc4ccccc4)nc31)C(O)C2O (centres unmarked)", "system.tested": "hA3 receptor (Homo sapiens, UniProt P0DMS8)", "reported.property": "mean pKD (kinetic)", "result": 10.3}
{"compound": "OC[C@H]1O[C@@H](n2cnc3c(Nc4cccc(Cl)c4)ncnc32)[C@H](O)[C@@H]1O", "system.tested": "hA3 receptor (Homo sapiens, UniProt P0DMS8)", "reported.property": "mean pKD (kinetic)", "result": 8.0}
